Assay: Hepatocyte stability assay, mouse hepatocytes
Type: in vitro ADME
Conditions: mouse, cryopreserved hepatocytes, 1 μM compound, 0.5 million cells/mL, 37° C., read-out: MH +/− NADPH: Clint (μL/min/million cells)
Text: The […] of in vitro intrinsic clearance (Clint) for drug candidates in the early discovery stage is common practice in the pharmaceutical industry. […] Metabolic stability of testing compound were be evaluated using human and mouse hepatocytes and can also be use rat, mouse, or other animal hepatocytes to predict intrinsic clearance. […] Cell density was counted by a hemacytometer. […]
Outcome measure: hepatocyte CLint at 1 μM

• CC(C)(c1ccc(CNc2ccnc(NS(C)(=O)=O)n2)cc1)c1cc(Cl)c(OCCCl)c(C#N)c1 = 4 to 18 µL/min/1e6 cells

Reported hepatocyte CLint at 1 μM for "Cc1nc(N)cc(COc2ccc(C(C)(C)c3cc(Cl)c(OCCCl)c(C#N)c3)cc2)n1" was ≥ 18 µL/min/1e6 cells

# hepatocyte CLint at 1 μM (compound: "CC(C)(c1ccc(OCc2nnccc2NS(C)(=O)=O)cc1)c1cc(Cl)c(OCCCl)c(C#N)c1" ) is 4 to 18 µL/min/1e6 cells

For reference, reported hepatocyte CLint at 1 μM for "CC(C)(c1ccc(OCc2[nH]cnc2S(C)(=O)=O)cc1)c1cc(Cl)c(OCCCl)c(Cl)c1" stands at 4 to 18 µL/min/1e6 cells

"CC(C)(c1ccc(OCc2ncc(S(C)(=O)=O)o2)cc1)c1cc(Cl)c(OCCCl)c(C#N)c1" yielded hepatocyte CLint at 1 μM of 4 to 18 µL/min/1e6 cells

Looking up "Cc1cnc(NS(C)(=O)=O)nc1COc1ccc(C(C)(C)c2cc(Cl)c(OCCCl)c(C#N)c2)cc1" , I found its hepatocyte CLint at 1 μM recorded as 4 to 18 µL/min/1e6 cells

Value of measured hepatocyte CLint at 1 μM for the entry "CSc1nc(C)c(COc2ccc(C(C)(C)c3cc(Cl)c(OCCCl)c(C#N)c3)cc2)o1" : 4 to 18 µL/min/1e6 cells

Noted for CC(Oc1ccc(C(C)(C)c2cc(Cl)c(OCCCl)c(C#N)c2)cc1)c1ncoc1S(C)(=O)=O (stereo not drawn) : its hepatocyte CLint at 1 μM reads ≥ 18 µL/min/1e6 cells
